- assay.system: EHMT2 (Homo sapiens, UniProt Q96KQ7)
- Construct: host or cells: MDA-MB-231
- Sequence (Q96KQ7 whole entry): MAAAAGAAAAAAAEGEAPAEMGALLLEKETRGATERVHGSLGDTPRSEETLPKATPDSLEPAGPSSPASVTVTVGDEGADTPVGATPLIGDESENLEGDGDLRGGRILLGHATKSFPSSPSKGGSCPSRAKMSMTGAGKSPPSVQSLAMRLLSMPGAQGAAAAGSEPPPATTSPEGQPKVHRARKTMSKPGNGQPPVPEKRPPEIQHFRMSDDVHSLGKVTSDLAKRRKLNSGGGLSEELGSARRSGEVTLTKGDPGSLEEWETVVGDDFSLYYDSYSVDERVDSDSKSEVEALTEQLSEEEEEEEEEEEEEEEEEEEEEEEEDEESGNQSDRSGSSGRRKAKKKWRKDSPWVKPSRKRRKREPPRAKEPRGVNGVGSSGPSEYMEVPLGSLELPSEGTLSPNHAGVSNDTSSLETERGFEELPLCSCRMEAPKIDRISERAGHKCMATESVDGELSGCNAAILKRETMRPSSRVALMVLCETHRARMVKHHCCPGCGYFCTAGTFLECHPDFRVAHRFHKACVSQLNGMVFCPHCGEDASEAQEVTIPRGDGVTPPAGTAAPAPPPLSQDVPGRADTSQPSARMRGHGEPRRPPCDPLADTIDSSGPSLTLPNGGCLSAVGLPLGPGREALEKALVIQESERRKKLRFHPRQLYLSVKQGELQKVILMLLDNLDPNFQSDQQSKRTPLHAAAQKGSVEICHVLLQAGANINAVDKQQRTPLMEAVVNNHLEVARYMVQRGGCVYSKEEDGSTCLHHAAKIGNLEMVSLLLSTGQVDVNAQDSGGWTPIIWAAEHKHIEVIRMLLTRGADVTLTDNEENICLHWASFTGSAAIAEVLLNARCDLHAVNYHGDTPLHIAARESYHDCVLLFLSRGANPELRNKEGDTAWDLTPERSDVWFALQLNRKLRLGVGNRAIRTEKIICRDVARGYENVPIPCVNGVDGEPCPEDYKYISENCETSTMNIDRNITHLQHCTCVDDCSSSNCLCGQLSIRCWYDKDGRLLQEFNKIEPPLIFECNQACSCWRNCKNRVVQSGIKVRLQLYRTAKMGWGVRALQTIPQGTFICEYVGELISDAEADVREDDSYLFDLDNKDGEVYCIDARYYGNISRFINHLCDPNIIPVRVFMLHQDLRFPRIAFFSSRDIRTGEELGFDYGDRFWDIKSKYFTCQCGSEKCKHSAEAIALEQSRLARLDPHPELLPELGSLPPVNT
- test.protocol: MDA-MB-231 H3K9me2 in-cell Western assay (EHMT2 ICW)
- Assay type: cell-based
- test.conditions: H3K9me2 in-cell Western, MDA-MB-231 cells; read-out: EHMT2 ICW (IC50 μM)
experimental.readout: IC50

The examples below pair each entry with its known result.
1) C/C=C/C(=O)Nc1cc(OCCCN2CCCC2)c(OC)cn1 [Compound 597] ... > 10 µM
2) CNc1cc(C)nc(Nc2cc(OC[C@@H]3CCN(C)C3)c(OC)cn2)c1 [Compound 475] ... 0.1 to 1 µM

# input For the compound CNc1cc(C)nc(Nc2ccc(OC)c(OCC3CCCN(C4CC4)C3)c2)n1 (centres unmarked) [Compound 517a] , what IC50 is on record?
# output 0.1 to 1 µM

# input For the compound CNc1cc(C)nc(Nc2ccc(OC)c(OCCC3CCN(C)C3)c2)n1 (centres unmarked) [Compound 503] , what IC50 is on record?
# output 1 to 10 µM

# input For the compound CNc1cc(C)nc(Nc2ccc(OC)c(OCC3CN(C4CCC4)C3)c2)n1 [Compound 576] , what IC50 is on record?
# output 0.1 to 1 µM

###

- assay.system: human EHMT2 913-1193 (Homo sapiens, UniProt Q96KQ7)
- Construct: recombinant purified human EHMT2 913-1193, Viva; purchased Viva
- Sequence (Q96KQ7 913-1193): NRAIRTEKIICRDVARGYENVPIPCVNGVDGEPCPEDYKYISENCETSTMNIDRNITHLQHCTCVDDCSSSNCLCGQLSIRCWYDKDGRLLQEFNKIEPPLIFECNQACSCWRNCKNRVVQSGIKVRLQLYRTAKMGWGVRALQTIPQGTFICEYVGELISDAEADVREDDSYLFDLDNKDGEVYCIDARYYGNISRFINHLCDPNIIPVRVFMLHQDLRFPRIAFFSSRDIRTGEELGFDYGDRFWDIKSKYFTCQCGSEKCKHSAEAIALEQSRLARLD
- test.protocol: EHMT2 enzyme assay on histone peptide substrate (EHMT2 PEP)
- Assay type: biochemical
- test.conditions: Table II; read-out: EHMT2 PEP (IC50 μM)
Each entry below carries its reported IC50.

The examples below pair each entry with its known result.
1) COc1ccc(Nc2nccc(NCc3ccc(=O)[nH]c3)n2)cc1OCCCN1CCCC1 ... 0.1 to 1 µM
2) CCCCNc1nc(NCC2CCNCC2)ncc1C#N ... > 10 µM
3) CNc1ccnc(Nc2cccc(OCCCN3CCCC3)c2)n1 ... 1 to 10 µM
4) CNC(=O)CNc1ccnc(Nc2ccc(OC)c(OCCCN3CCCC3)c2)n1 ... 0.1 to 1 µM
5) COc1ccc(Nc2cccc(NCC3CCNCC3)n2)cc1OCCCN1CCCC1 ... 1 to 10 µM
6) CNc1ccnc(Nc2ccc(OC)c(OCCCN3CC(F)C3)c2)n1 ... 1 to 10 µM
7) COCCNc1ccnc(Nc2ccc(OC)c(OCCCN3CCCC3)c2)n1 ... 0.1 to 1 µM
8) COc1ccc(Nc2nccc(N3CCc4cn[nH]c4C3)n2)cc1OCCCN1CCCC1 ... 1 to 10 µM

# input For the compound "COc1ccc(Nc2nccc(NC3COC3)n2)cc1OCCCN1CCCC1" , what IC50 is on record?
# output 1 to 10 µM

# input For the compound "COc1ccc(Nc2nccc(NCCNC(C)=O)n2)cc1OCCCN1CCCC1" , what IC50 is on record?
# output < 0.1 µM

# input For the compound "COc1ccc(Nc2nccc(NCC3(O)CCCCC3)n2)cc1OCCCN1CCCC1" , what IC50 is on record?
# output 0.1 to 1 µM

###

- assay.system: human EHMT2 913-1193 (Homo sapiens, UniProt Q96KQ7)
- Construct: recombinant purified human EHMT2 913-1193, Viva; purchased Viva
- test.protocol: EHMT2 enzyme assay on histone peptide substrate (EHMT2 PEP)
- Format: biochemical
- test.conditions: Table II; read-out: EHMT2 PEP (IC50 μM)
Each entry below carries its reported IC50.

The examples below pair each entry with its known result.
1) COc1ccc(Nc2nccc(NC3CCS(=O)(=O)CC3)n2)cc1OCCCN1CCCC1 [Compound 152] ... 1 to 10 µM
2) CCCCNc1ccnc(NCCCN2CCCC2)n1 [Compound 73] ... > 10 µM
3) CCCCNc1nccc(NCC2CCC(NC(C)=O)CC2)n1 (centres unmarked) [Compound 69] ... > 10 µM

# input For the molecule COc1ccc(Nc2nccc(NCc3cc[nH]n3)n2)cc1OCCCN1CCCC1 [Compound 46] , what IC50 is on record?
# output < 0.1 µM

# input For the molecule COc1ccc(Nc2nccc(NCC3CCNCC3)n2)cc1OCCCN1CCOCC1 [Compound 16] , what IC50 is on record?
# output 0.1 to 1 µM

# input For the molecule COc1cccc(CNc2ccnc(Nc3ccc(OC)c(OCCCN4CCCC4)c3)n2)c1 [Compound 26] , what IC50 is on record?
# output < 0.1 µM

# input For the molecule COc1ccc(Nc2nc(C)cc(NCC3CCN(C(C)=O)CC3)n2)cc1OCCCN1CCCC1 [Compound 19] , what IC50 is on record?
# output < 0.1 µM

# input For the molecule COc1ccc(Nc2ccnc(CNC3CCOCC3)n2)cc1OCCCN1CCCC1 [Compound 190] , what IC50 is on record?
# output 1 to 10 µM

###

- assay.system: EHMT1 (Homo sapiens)
- Sequence (Q9H9B1 whole entry, species assumed): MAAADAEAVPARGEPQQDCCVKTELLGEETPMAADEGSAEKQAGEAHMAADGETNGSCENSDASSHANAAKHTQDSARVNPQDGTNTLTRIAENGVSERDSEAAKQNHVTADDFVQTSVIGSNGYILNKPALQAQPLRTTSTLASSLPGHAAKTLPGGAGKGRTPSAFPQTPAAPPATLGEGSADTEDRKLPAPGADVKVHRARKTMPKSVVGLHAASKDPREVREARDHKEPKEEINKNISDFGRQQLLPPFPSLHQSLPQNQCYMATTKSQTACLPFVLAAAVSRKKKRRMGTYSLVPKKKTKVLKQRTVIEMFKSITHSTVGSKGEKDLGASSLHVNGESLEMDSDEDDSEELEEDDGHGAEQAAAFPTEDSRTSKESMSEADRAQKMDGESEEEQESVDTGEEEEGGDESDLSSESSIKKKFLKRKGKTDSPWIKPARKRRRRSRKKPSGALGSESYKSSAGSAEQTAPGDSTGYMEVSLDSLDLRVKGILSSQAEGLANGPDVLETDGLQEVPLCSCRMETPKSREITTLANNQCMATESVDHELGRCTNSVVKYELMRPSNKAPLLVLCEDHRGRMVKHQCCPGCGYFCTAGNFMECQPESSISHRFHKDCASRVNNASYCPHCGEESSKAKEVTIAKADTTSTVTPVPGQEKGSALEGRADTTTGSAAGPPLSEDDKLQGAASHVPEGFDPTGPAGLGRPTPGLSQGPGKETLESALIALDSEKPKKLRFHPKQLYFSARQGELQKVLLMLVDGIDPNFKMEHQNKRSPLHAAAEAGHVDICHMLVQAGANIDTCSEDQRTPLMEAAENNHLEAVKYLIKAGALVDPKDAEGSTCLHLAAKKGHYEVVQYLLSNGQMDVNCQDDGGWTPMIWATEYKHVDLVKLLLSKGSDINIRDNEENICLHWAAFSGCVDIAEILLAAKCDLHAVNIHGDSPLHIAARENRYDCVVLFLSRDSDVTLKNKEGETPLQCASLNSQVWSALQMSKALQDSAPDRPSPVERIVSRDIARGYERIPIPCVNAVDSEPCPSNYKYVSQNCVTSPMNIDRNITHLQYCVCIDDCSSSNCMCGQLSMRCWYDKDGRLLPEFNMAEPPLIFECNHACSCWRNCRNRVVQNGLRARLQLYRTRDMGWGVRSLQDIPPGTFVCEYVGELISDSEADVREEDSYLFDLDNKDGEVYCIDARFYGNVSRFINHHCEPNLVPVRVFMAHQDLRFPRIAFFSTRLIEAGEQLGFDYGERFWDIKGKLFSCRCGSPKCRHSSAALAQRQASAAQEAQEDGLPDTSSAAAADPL
- test.protocol: EHMT1 enzyme assay on peptide substrate (EHMT1 PEP)
- Format: biochemical
- test.conditions: Table VI; read-out: EHMT1 PEP IC50
experimental.readout: IC50

The examples below pair each entry with its known result.
1) COc1cc(N(C)C2CCNCC2)ncc1OCC1CCN(C)C1 (stereo not shown) [Compound 634] ... 0.1 to 1 µM
2) CNc1cc(C)nc(Nc2cnc(OC)c(OC[C@@H]3CCNC3)c2)n1 ... < 0.1 µM

Consider the additional molecule presented here.
# input For the molecule "CNc1ccnc(Nc2ccc(OC)c(OC[C@@H]3CNCCO3)c2)n1" , what IC50 is on record?
# output > 10 µM

###

Each entry below carries its reported IC50.
- assay.system: EHMT1 (Homo sapiens)
- test.protocol: EHMT1 enzyme assay on peptide substrate (EHMT1 PEP)
- Type: biochemical
- test.conditions: Table VI; read-out: EHMT1 PEP IC50

The examples below pair each entry with its known result.
1) CNc1ccnc(Nc2ccc(OC)c(CNCCN3CCCC3)c2)n1 [Compound 1032] ... < 0.1 µM
2) COc1cc(N(C)C2CCNCC2)ncc1OCC1CCNC1 (stereo not shown) [Compound 1041] ... 0.1 to 1 µM
3) CNc1cc(C2CCN(CCC(F)(F)F)CC2)c2cc(OC)c(OCCCN3CCCC3)cc2n1 [Compound 832] ... < 0.1 µM

Consider the additional compound presented here.
# input For the compound COc1cc2c(C)nc(N3CCOCC3)nc2cc1OCCCN1CCCC1 [Compound 762] , what IC50 is on record?
# output > 10 µM

###

Each entry below carries its reported pIC50.
- assay.system: EHMT1 (Homo sapiens)
- test.protocol: EHMT1 enzyme assay on peptide substrate (EHMT1 PEP)
- Assay type: biochemical
- test.conditions: Table VII; read-out: EHMT1 PEP IC50
pIC50: −log10 of the molar value.

1. CNCCNCc1cc(Nc2nccc(NC)n2)cnc1OC [Compound 1077] ... 6.00 to 7.00
2. CNc1ccnc(Nc2cnc(OC)c(OCCCN3CCCC3)c2)n1 [Compound 1048] ... > 7.00
3. CCNc1cc(C)nc(Nc2ccc(OC)c(OC[C@H](O)CN3CCCC3)c2)n1 [Compound 1106] ... > 7.00
4. CNc1ccnc(Nc2cnc(OC)c(OCCCN3CCC3)c2)n1 [Compound 1050] ... > 7.00
5. CNc1ccnc(Nc2ccc(OC)c(OC[C@@H]3CCN(C4CC4)C3)c2)n1 [Compound 1056] ... > 7.00
6. CNc1ccnc(Nc2ccc(OC)c(CNCCN3CCC3)c2)n1 [Compound 1075] ... > 7.00
7. CNc1ccnc(Nc2ccc(OC)c(OC[C@H](O)CN3CCC3)c2)n1 [Compound 1047] ... > 7.00
8. CNc1cc(C)nc(Nc2ccc(C)c(C(=O)NCc3ccon3)c2)n1 [Compound 1114] ... < 5.00

# input For the molecule CNCCCOc1cc(Nc2nccc(NC)n2)cnc1OC [Compound 1053] , what pIC50 is on record?
# output 6.00 to 7.00

# input For the molecule CNc1ccnc(Nc2ccc(OC)c(OC[C@@H]3CNCCO3)c2)n1 [Compound 1072] , what pIC50 is on record?
# output < 5.00

# input For the molecule CNc1cc(C)nc(Nc2ccc(OC)c(OC[C@@H](O)CN3CCCC3)c2)n1 [Compound 1044] , what pIC50 is on record?
# output 6.00 to 7.00

# input For the molecule CNc1cc(C)nc(Nc2ccc(OC)c(OC[C@H](O)CN(C)C)c2)n1 [Compound 1112] , what pIC50 is on record?
# output > 7.00

# input For the molecule CNc1ccnc(Nc2ccc(OC)c(OCC(C)(O)CN3CCC3)c2)n1 (centres unmarked) [Compound 1057] , what pIC50 is on record?
# output 6.00 to 7.00

# input For the molecule CCNc1nc(C)cc(Nc2ccc(NC(=O)Nc3ccc(F)cc3)cc2)n1 [Compound 1116] , what pIC50 is on record?
# output < 5.00

# input For the molecule CNc1ccnc(Nc2ccc(OC)c(OC[C@@H](C)CN3CCC3)c2)n1 [Compound 1092] , what pIC50 is on record?
# output 5.00 to 6.00

# input For the molecule CNc1cc(C)nc(Nc2cnc(OC)c(CNCCN3CCC3)c2)n1 [Compound 1110] , what pIC50 is on record?
# output > 7.00

# input For the molecule CNc1ccnc(Nc2ccc(OC)c(OCCC(C)N3CCC3)c2)n1 (centres unmarked) [Compound 1060] , what pIC50 is on record?
# output 6.00 to 7.00
